ASSAY SYSTEM: Lp-PLA2 enzyme in human plasma (Homo sapiens)
Construct: from tissue; host or cells: pooled (mixed) human plasma
Sequence (Q13093 22-441): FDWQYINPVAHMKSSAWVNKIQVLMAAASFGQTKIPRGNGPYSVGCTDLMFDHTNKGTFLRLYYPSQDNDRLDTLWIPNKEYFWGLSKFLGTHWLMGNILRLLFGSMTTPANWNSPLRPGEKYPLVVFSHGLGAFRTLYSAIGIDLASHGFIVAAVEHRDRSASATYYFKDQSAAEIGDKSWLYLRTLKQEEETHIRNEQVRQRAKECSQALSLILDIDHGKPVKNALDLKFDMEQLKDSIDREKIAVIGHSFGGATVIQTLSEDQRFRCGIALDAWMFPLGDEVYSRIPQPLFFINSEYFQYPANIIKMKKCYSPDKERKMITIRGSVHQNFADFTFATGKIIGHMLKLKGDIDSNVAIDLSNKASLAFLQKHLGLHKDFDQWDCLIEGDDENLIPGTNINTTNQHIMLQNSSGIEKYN
EXPERIMENT SUMMARY: Human plasma Lp-PLA2 assay (Thio-PAF assay)
Format: biochemical
SETUP CONDITIONS: mixed human plasma; 2-thio-PAF substrate with CPM; 30 min pre-incubation; fluorescence ex 380/em 485; read-out: Thio-PAF (pIC50) (converted)
QUANTITY: IC50 (nM)
Return type: number; implicit unit nM.

Known IC50 results, listed for orientation:
O=c1nc(OCc2cc(F)c(Oc3ccnc(C(F)(F)F)c3)c(F)c2)cc2n1CC[C@@H]1COCCN21 [Compound 4] : 6.31
O=c1nc(OCc2cc(F)c(Oc3cccc(C(F)(F)F)c3)c(F)c2)cc2n1CC[C@@H]1COCCN21 [Compound 9] : 6.31

Exercise: Consider the molecule O=c1nc(OCc2cccc(F)c2F)cc2n1CC[C@@H]1COCCN21 [Compound 2] and give its measured IC50.
Solution: 251

Exercise: Now consider Cc1ccc(Oc2c(F)cc(COc3cc4n(c(=O)n3)CC[C@@H]3COCCN43)cc2F)cn1 [Compound 7] .
Solution: 7.94

====

ASSAY SYSTEM: Recombinant human Lp-PLA2 enzyme (Homo sapiens, UniProt Q13093)
Sequence (Q13093 22-441): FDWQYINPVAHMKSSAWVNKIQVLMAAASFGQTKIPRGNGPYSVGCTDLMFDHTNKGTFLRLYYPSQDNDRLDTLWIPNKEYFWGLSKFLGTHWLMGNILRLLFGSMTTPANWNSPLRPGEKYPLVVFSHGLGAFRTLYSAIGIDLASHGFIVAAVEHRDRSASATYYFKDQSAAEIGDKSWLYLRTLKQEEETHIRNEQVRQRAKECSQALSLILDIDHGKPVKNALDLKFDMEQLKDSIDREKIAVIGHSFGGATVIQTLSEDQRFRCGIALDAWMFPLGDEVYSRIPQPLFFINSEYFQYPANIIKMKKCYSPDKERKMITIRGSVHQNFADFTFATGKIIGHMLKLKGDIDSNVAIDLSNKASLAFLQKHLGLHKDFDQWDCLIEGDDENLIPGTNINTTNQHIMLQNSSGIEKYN
EXPERIMENT SUMMARY: Recombinant human Lp-PLA2 (rhLp-PLA2) assay (PED6 assay)
Assay type: biochemical
SETUP CONDITIONS: PED6 substrate; recombinant human Lp-PLA2 at 4 nM or 110 pM; 30 min pre-incubation; fluorescence ex 480/em 540; read-out: rhLp-PLA2 (pIC50) (converted)
QUANTITY: IC50 (nM)
Only the number, expressed in nM, is required.

Reference set, count: 3
Cc1cc(Oc2c(F)cc(COc3cc4n(c(=O)n3)CC[C@H]3COCCN43)cc2F)ccn1 [Compound 16] : 0.0794
O=c1nc(OCc2cc(F)c(Oc3ccnc(C(F)(F)F)c3)c(F)c2)cc2n1CC[C@H]1COCCN21 [Compound 15] : 0.126
Cc1ccc(Oc2c(F)cc(COc3cc4n(c(=O)n3)CC[C@H]3COCCN43)cc2F)cn1 [Compound 18] : 0.1

# evaluate next
Exercise: Query: IC50; subject: O=c1nc(OCc2cc(F)c(Oc3cccc(OC(F)(F)F)c3)c(F)c2)cc2n1CC[C@@H]1COCCN21 [Compound 10]
Solution: 0.0794

====

ASSAY SYSTEM: Lp-PLA2 enzyme in human plasma (Homo sapiens, UniProt Q13093)
Construct: from tissue; host or cells: pooled (mixed) human plasma
EXPERIMENT SUMMARY: Human plasma Lp-PLA2 assay (Thio-PAF assay)
Assay type: biochemical
SETUP CONDITIONS: mixed human plasma; 2-thio-PAF substrate with CPM; 30 min pre-incubation; fluorescence ex 380/em 485; read-out: Thio-PAF (pIC50) (converted)
QUANTITY: IC50 (nM)
Please give a number only; it is taken to be in nM.

Cc1ncc(Oc2c(F)cc(COc3cc4n(c(=O)n3)CC[C@@H]3COCCN43)cc2F)cn1 : 15.8

Exercise: Which IC50 is reported for this compound? Cc1cc(Oc2c(F)cc(COc3cc4n(c(=O)n3)CC[C@@H]3COCCN43)cc2F)ccn1
Solution: 3.16

====

ASSAY SYSTEM: Recombinant human Lp-PLA2 enzyme (Homo sapiens)
EXPERIMENT SUMMARY: Recombinant human Lp-PLA2 (rhLp-PLA2) assay (PED6 assay)
Format: biochemical
SETUP CONDITIONS: PED6 substrate; recombinant human Lp-PLA2 at 4 nM or 110 pM; 30 min pre-incubation; fluorescence ex 480/em 540; read-out: rhLp-PLA2 (pIC50) (converted)
Measured IC50 by item
State the answer as a number, implicitly in nM.

Below, each entry is followed by its recorded IC50 result.
O=c1nc(OCc2cc(F)c(Oc3ccc(C(F)(F)F)cc3)c(F)c2)cc2n1CC[C@H]1COCCN21 [Compound 20] : 0.1
O=c1nc(OCc2cc(F)c(Oc3ccc(C(F)(F)F)nc3)c(F)c2)cc2n1CC[C@@H]1COCCN21 [Compound 6] : 0.1
O=c1nc(OCc2cc(F)c(Oc3ccc(C(F)(F)F)nc3)c(F)c2)cc2n1CC[C@H]1COCCN21 [Compound 17] : 0.126
O=c1nc(OCc2cc(F)c(F)c(F)c2)cc2n1CC[C@H]1COCCN21 [Compound 13] : 6.31
O=c1nc(OCc2cc(F)c(Oc3ccc(C(F)(F)F)c(Cl)c3)c(F)c2)cc2n1CC[C@@H]1COCCN21 [Compound 12] : 0.0501
O=c1nc(OCc2cccc(F)c2F)cc2n1CC[C@@H]1COCCN21 [Compound 2] : 25.1
O=c1nc(OCc2cc(F)c(Oc3ccnc(C(F)(F)F)c3)c(F)c2)cc2n1CC[C@@H]1COCCN21 [Compound 4] : 0.0794
Cc1ccc(Oc2c(F)cc(COc3cc4n(c(=O)n3)CC[C@@H]3COCCN43)cc2F)cn1 [Compound 7] : 0.0631

From here, focus on the item given below.
Exercise: Look up IC50: Cc1cc(Oc2c(F)cc(COc3cc4n(c(=O)n3)CC[C@@H]3COCCN43)cc2F)ccn1 [Compound 5]
Solution: 0.0631

====

ASSAY SYSTEM: Lp-PLA2 enzyme in human plasma (Homo sapiens, UniProt Q13093)
Construct: from tissue; host or cells: pooled (mixed) human plasma
EXPERIMENT SUMMARY: Human plasma Lp-PLA2 assay (Thio-PAF assay)
Format: biochemical
SETUP CONDITIONS: mixed human plasma; 2-thio-PAF substrate with CPM; 30 min pre-incubation; fluorescence ex 380/em 485; read-out: Thio-PAF (pIC50) (converted)
The entries below come with measured log10(IC50) values attached.
Transform log10 | Measure IC50 | Unit nM

Below are worked cases with known answers.
O=c1nc(OCc2cc(F)c(F)c(F)c2)cc2n1CC[C@@H]1COCCN21 : 1.80
O=c1nc(OCc2cc(F)c(Oc3cccc(OC(F)(F)F)c3)c(F)c2)cc2n1CC[C@@H]1COCCN21 : 1.00
O=c1nc(OCc2cc(F)c(Oc3ccc(C(F)(F)F)nc3)c(F)c2)cc2n1CC[C@@H]1COCCN21 : 0.90

Exercise: Tell me the measured log10(IC50) of O=c1nc(OCc2cc(F)c(Oc3ccc(C(F)(F)F)c(Cl)c3)c(F)c2)cc2n1CC[C@@H]1COCCN21 , please.
Solution: 0.80

Exercise: # repeat for O=c1nc(OCc2cccc(F)c2F)cc2n1CC[C@H]1COCCN21
Solution: 2.50

Exercise: Do the same for O=c1nc(OCc2cc(F)c(Oc3ccnc(C(F)(F)F)c3)c(F)c2)cc2n1CC[C@H]1COCCN21 please
Solution: 1.10

====

ASSAY SYSTEM: Recombinant human Lp-PLA2 enzyme (Homo sapiens)
EXPERIMENT SUMMARY: Recombinant human Lp-PLA2 (rhLp-PLA2) assay (PED6 assay)
Format: biochemical
SETUP CONDITIONS: PED6 substrate; recombinant human Lp-PLA2 at 4 nM or 110 pM; 30 min pre-incubation; fluorescence ex 480/em 540; read-out: rhLp-PLA2 (pIC50) (converted)
QUANTITY: log10(IC50) (log10 of the value in pM)
Quick note: numbers are log10 of IC50, with pM as the unit.

O=c1nc(OCc2cc(F)c(Oc3cccc(C(F)(F)F)c3)c(F)c2)cc2n1CC[C@H]1COCCN21 [Compound 19] : 1.90
O=c1nc(OCc2cccc(F)c2F)cc2n1CC[C@H]1COCCN21 [Compound 14] : 4.50
O=c1nc(OCc2cc(F)c(Oc3cccc(C(F)(F)F)c3)c(F)c2)cc2n1CC[C@@H]1COCCN21 [Compound 9] : 1.80
O=c1nc(OCc2cc(F)c(Oc3ccc(C(F)(F)F)cc3)c(F)c2)cc2n1CC[C@@H]1COCCN21 [Compound 11] : 1.90
O=c1nc(OCc2cc(F)c(F)cc2F)cc2n1CC[C@@H]1COCCN21 [Compound 3] : 4.50

Exercise: Endpoint output: log10(IC50) of O=c1nc(OCc2cc(F)c(F)c(F)c2)cc2n1CC[C@@H]1COCCN21 [Compound 1] . Value?
Solution: 3.60

Exercise: Query Cc1ncc(Oc2c(F)cc(COc3cc4n(c(=O)n3)CC[C@@H]3COCCN43)cc2F)cn1 [Compound 8] next
Solution: 2.50
